Values were extracted from patent US4130559A.

In what follows, each item is paired with its MIC for E.typhi.
Could you give me the number in µg/mL? Just the number is fine.

Illustrative cases are given below, each with its answer.
MOLECULE | UNIT ANNOTATION | MIC
CC(C)Oc1ccc(C2(C(=O)NC3C(=O)N4C3SC(C)(C)C4C(=O)O)CCCC2)cc1 (centres unmarked) | µg/mL | 7.8
CCCOc1ccccc1C1(C(=O)NC2C(=O)N3C2SC(C)(C)C3C(=O)O)CCCC1 (centres unmarked) | µg/mL | 62.5
CCCCOc1ccccc1C1(C(=O)NC2C(=O)N3C2SC(C)(C)C3C(=O)O)CCCC1 (centres unmarked) | µg/mL | 125
CCCOc1ccc(C2(C(=O)NC3C(=O)N4C3SC(C)(C)C4C(=O)O)CCCC2)cc1 (centres unmarked) | µg/mL | 7.8
CC(C)Oc1ccccc1C1(C(=O)NC2C(=O)N3C2SC(C)(C)C3C(=O)O)CCCC1 (centres unmarked) | µg/mL | 125
COc1ccccc1C1(C(=O)NC2C(=O)N3C2SC(C)(C)C3C(=O)O)CCCC1 (centres unmarked) | µg/mL | 62.5

For CCOc1cccc(C2(C(=O)NC3C(=O)N4C3SC(C)(C)C4C(=O)O)CCCC2)c1 (centres unmarked) , what is its reported MIC?
31.2

Let us now turn to CC1(C)SC2C(NC(=O)C3(c4ccccc4)CCCC3)C(=O)N2C1C(=O)O (centres unmarked)
62.5
